Attribution: patent US20250163164A1

- subject-of-test: T1, human interleukin 13 receptor subunit alpha 2 (IL-13RA2) (human, UniProt Q14627 27-380)
- T1 sequence (looked up): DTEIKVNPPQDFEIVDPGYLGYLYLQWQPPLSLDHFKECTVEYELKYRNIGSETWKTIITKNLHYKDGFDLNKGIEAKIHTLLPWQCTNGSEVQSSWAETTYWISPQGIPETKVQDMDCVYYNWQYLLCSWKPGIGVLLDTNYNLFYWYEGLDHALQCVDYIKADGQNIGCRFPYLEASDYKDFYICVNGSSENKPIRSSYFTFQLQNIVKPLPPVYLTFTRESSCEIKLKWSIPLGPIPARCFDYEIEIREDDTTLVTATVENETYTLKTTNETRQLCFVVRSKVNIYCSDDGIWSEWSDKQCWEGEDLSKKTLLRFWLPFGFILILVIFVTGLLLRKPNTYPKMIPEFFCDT
- assay-text: cell-based or functional assay
List of internalization Top (MFI), HEK-293/H IL-13RA2 cells values.
Your answer is read as MFI, so omit the unit and give the number.

# query: internalization Top (MFI), HEK-293/H IL-13RA2 cells of entry xi61H8C1 hIgG1 (antibody, V domains shown) VH: QVQLQQSGAELARPGASVMLSCKASGYTFTSYWTQWIKQRPGQGLEGIGAIYPGDDDTSYNQKFKGKATLTADKSSSTAYMQLNSLTSEDSAVYYCARGATLLRPFPYWGQGTLVTVSA VL: DIVMTQSHKFMSTSVGDRVSITCKASQDVSTAVAWYQQKPGQSPKLLIYSASYRYTGVPDRFTGSGSGTDFTFTISSVQAEDLAVYSCQQHYSIPPTFGGGTKLEIK
24700

Turning now to a further record.
# query: internalization Top (MFI), HEK-293/H IL-13RA2 cells of entry xi51G2B3 hIgG1 (antibody, V domains shown) VH: QVQLQQSGPELVKPGASVKISCKASGYAFSDSWMNWVKQRPGQGLEWIGRIYPGDGDTNYNGKFKGKATLTADKSSNTAYMQLSSLTSVDSAVYFCARSWNGSPWFPYWGQGTLVTVSA VL: DVLMTQTPLSLPVSLGDQASISCRSSQTIAHRNGNTYLEWYLQKPGQSPKLLLYKVSNRFSGVPDRFSGSGSGTDFTLKISRVEAEDLGVYYCFQGSHVTWTFGGGTKLEIK
28900
